Experiment: Cell viability (MTT) after 3 days of exposure
Type: cell-based
Conditions: African green monkey, Vero E6 cells, read-out: CC50, concentration reducing cell viability by 50%
Observable: CC50 at 3 days (µM)

{"Molecule": "NCCc1ccc(CN2CCC(O)(c3cccc(C(F)(F)F)c3)CC2)cc1", "Endpoint unit": "µM", "Comparative sign": "=", "Quantitative result": 80.6}
{"Molecule": "OC1CN(Cc2cccc3cc[nH]c23)CCN(c2ccncc2)C1 (stereo not drawn)", "Endpoint unit": "µM", "Comparative sign": "=", "Quantitative result": 93}
{"Molecule": "OC1CCCN(C2CCN(Cc3ncc[nH]3)CC2)C1 (stereo not drawn)", "Endpoint unit": "µM", "Comparative sign": ">", "Quantitative result": 100}
{"Molecule": "Cc1nc(CN)cc(N2CCC(C(O)c3nccn3C)CC2)n1 (stereo not drawn)", "Endpoint unit": "µM", "Comparative sign": ">", "Quantitative result": 100}
{"Molecule": "Clc1ccc2c(N3CCN(CCCN4CCN(c5ccnc6cc(Cl)ccc56)CC4)CC3)ccnc2c1 [piperaquine, reference compound]", "Endpoint unit": "µM", "Comparative sign": "=", "Quantitative result": 5.66}
{"Molecule": "Cc1cc2c(cc1CN1CC(CO)C(CN3CCCCCC3)C1)OCCO2 (stereo not drawn)", "Endpoint unit": "µM", "Comparative sign": ">", "Quantitative result": 100}
